protocol.notes: Pharmacokinetic study in mice, plasma and brain structures, LC/MS/MS
Assay type: in vivo, Swiss albino mice
study.conditions: Swiss albino, mouse, hippocampus, ip, 1.25 mg/kg, 1.25 mg/kg i.p., 60 min, read-out: Concentration, hippocampus (individual animals)
readout.name: concentration at 60 min (ng/mL)
Write the value in ng/mL as a bare number.

# input Entry Cn1c(=O)c2c(nc3n(CCCCN4CCN(c5cccc(C(F)(F)F)c5)CC4)ccn23)n(C)c1=O : reported concentration at 60 min = ?
# output 101

###

protocol.notes: Pharmacokinetic study in mice, plasma and brain structures, LC/MS/MS
Type: in vivo, Swiss albino mice
study.conditions: Swiss albino, mouse, plasma, ip, 1.25 mg/kg, 1.25 mg/kg i.p., 60 min, read-out: Concentration, plasma (individual animals)
readout.name: concentration at 60 min (ng/mL)
Write the value in ng/mL as a bare number.

# input Entry Cn1c(=O)c2c(nc3n(CCCCN4CCN(c5cccc(C(F)(F)F)c5)CC4)ccn23)n(C)c1=O : reported concentration at 60 min = ?
# output 7.37

###

protocol.notes: Pharmacokinetic study in mice, plasma and brain structures, LC/MS/MS
Format: in vivo, Swiss albino mice
study.conditions: Swiss albino, mouse, plasma, ip, 1.25 mg/kg, 1.25 mg/kg i.p., 240 min, read-out: Concentration, plasma (Mean)
readout.name: concentration at 240 min (ng/mL)
Write the value in ng/mL as a bare number.

# input Entry Cn1c(=O)c2c(nc3n(CCCCN4CCN(c5cccc(C(F)(F)F)c5)CC4)ccn23)n(C)c1=O : reported concentration at 240 min = ?
# output 0.56

###

protocol.notes: Pharmacokinetic study in mice, plasma and brain structures, LC/MS/MS
Type: in vivo, Swiss albino mice
study.conditions: Swiss albino, mouse, hippocampus, ip, 1.25 mg/kg, 1.25 mg/kg i.p., 5 min, read-out: Concentration, hippocampus (individual animals)
readout.name: concentration at 5 min

# input Entry Cn1c(=O)c2c(nc3n(CCCCN4CCN(c5cccc(C(F)(F)F)c5)CC4)ccn23)n(C)c1=O [AZ-861] : reported concentration at 5 min = ?
# output 289 ng/mL

###

protocol.notes: Pharmacokinetic study in mice, plasma and brain structures, LC/MS/MS
Type: in vivo, Swiss albino mice
study.conditions: Swiss albino, mouse, hippocampus, ip, 0.625 mg/kg, 0.625 mg/kg i.p., read-out: tmax, hippocampus (converted)
readout.name: Tmax (min)
Write the value in min as a bare number.

# input Entry Cn1c(=O)c2c(nc3n(CCCCN4CCN(c5ccccc5F)CC4)ccn23)n(C)c1=O : reported Tmax = ?
# output 15

###

protocol.notes: Pharmacokinetic study in mice, plasma and brain structures, LC/MS/MS
Type: in vivo, Swiss albino mice
study.conditions: Swiss albino, mouse, plasma, ip, 1.25 mg/kg, 1.25 mg/kg i.p., 480 min, read-out: Concentration, plasma (Mean)
readout.name: concentration at 480 min (ng/mL)
Write the value in ng/mL as a bare number.

# input Entry Cn1c(=O)c2c(nc3n(CCCCN4CCN(c5cccc(C(F)(F)F)c5)CC4)ccn23)n(C)c1=O : reported concentration at 480 min = ?
# output 0.27

###

protocol.notes: Pharmacokinetic study in mice, plasma and brain structures, LC/MS/MS
Type: in vivo, Swiss albino mice
study.conditions: Swiss albino, mouse, frontal cortex, ip, 0.625 mg/kg, 0.625 mg/kg i.p., read-out: tmax, frontal cortex (converted)
readout.name: Tmax (min)
Write the value in min as a bare number.

# input Entry Cn1c(=O)c2c(nc3n(CCCCN4CCN(c5ccccc5F)CC4)ccn23)n(C)c1=O : reported Tmax = ?
# output 5
